Please provide measured Cmax for the entries that follow.
test: In-vivo metabolism (pharmacokinetic) study in rats, oral / tail intravenous; conditions: rat; Oral, 10 mg/kg, male SD rats, plasma
API: value field is a number in ng/mL; no unit string.

## Input Dear colleague, please send me the reported Cmax for C[C@@H](O)[C@H](N)C(=O)N1CC2(C1)N[C@H](C(N)=O)CS2.Cl [A-258] when you can.
## Output 4910

## Input Complete the entry with Cmax for CC(C)[C@H](N)C(=O)N1CC2(C1)N[C@H](C(N)=O)CS2.Cl [A-260]
## Output 6210

## Input Quickly give me recorded Cmax for CC(=O)N1CCSC12CCN(C(=O)[C@@H](N)[C@@H](C)O)CC2.Cl [A-082]
## Output 5580

## Input Please give measured Cmax of the following entry: CC(C)C(=O)N1CCSC12CN(C(=O)[C@@H](N)[C@@H](C)O)C2.Cl [A-098]
## Output 767

## Input Please report the measured Cmax for C[C@@H](O)[C@H](N)C(=O)N1CCC2(CC1)N[C@H](C(N)=O)CS2.Cl [A-274]
## Output 1880

## Input Given the compound C[C@@H](O)[C@H](N)C(=O)N1CC2(C1)NCCS2.Cl [A-006] , write its reported Cmax.
## Output 18400

## Input Assign Cmax to the following record: CC(=O)N1CCSC12CN(C(=O)[C@@H](N)[C@@H](C)O)C2.Cl [A-066]
## Output 2080

====

molecular target: NMDA receptor (Rattus norvegicus); construct: After the rats were decapitated, the prefrontal cortex and hippocampus were rapidly separated on ice; from tissue; host or cells: SD male rat prefrontal cortex and hippocampus, crude synaptosomes; assay: Inhibition of [3H]-MK-801 binding to rat crude synaptosomes (receptor ligand binding assay); conditions: affinity on NMDA; [3H]-MK-801 10 nM, rat prefrontal cortex and hippocampus crude synaptosomes; read-out: IC50
Would you mind telling me the reported IC50 of each entry?
Please state the figure in nM; there is no need to write the unit.

## Input Specify reported IC50 for the compound shown: Cl.N[C@@H](CO)C(=O)N1CC2(C1)N[C@H](C(=O)N1CCNCC1)CS2
## Output 0.35

## Input Output measured IC50 for this item: C[C@@H](O)[C@H](N)C(=O)N1CC2(C1)SCCN2C.Cl
## Output 0.33

## Input Supply recorded IC50 for CC(=O)N1CCC2(C1)N[C@H](C(=O)N[C@H](C(N)=O)[C@@H](C)O)CS2.Cl (stereo partly shown) here.
## Output 0.42

## Input Give the reported IC50 for this compound. CC(C)(C)OC(=O)N1CCCC2(C1)NCCS2 (stereo not shown)
## Output 0.66

## Input Provide only the value of recorded IC50 for CC(=O)N1CCSC12CCN(C(=O)[C@@H](N)[C@@H](C)O)C2.Cl (stereo partly shown)
## Output 0.89

## Input For the compound Cl.N[C@@H](CO)C(=O)N1CCC2(CC1)N[C@H](C(=O)N1CCNCC1)CS2 , give its measured IC50 value.
## Output 0.96

## Input Fill in reported IC50 for this entry: C[C@@H](O)[C@H](N)C(=O)N1CCC2(C1)N[C@H](C(=O)N1CCCCC1)CS2.Cl (stereo partly shown)
## Output 0.38

## Input Answer with the recorded IC50 for the compound listed here: Cl.N#C[C@@H]1CSC2(CN(C(=O)[C@@H](N)CO)C2)N1
## Output 0.24

## Input Using known records, supply IC50 for CC(=O)N1CCSC12CN(C(=O)[C@@H](N)[C@@H](C)O)C2.Cl
## Output 0.35

## Input Read the entry CC(=O)N1CCSC12CCN(C(=O)[C@@H](N)[C@@H](C)O)CC2.Cl and write its reported IC50.
## Output 0.89

## Input Please give measured IC50 of the following entry: CC(=O)N1CC2(C1)SCCN2C(C)=O
## Output 0.75

## Input Supply reported IC50 belonging to this compound: C[C@@H](O)[C@H](N)C(=O)N1CC2(C1)NCCS2.Cl
## Output 0.44

## Input Entry C[C@@H](O)[C@H](N)C(=O)N1CCC2(CC1)N[C@H](C(N)=O)CS2.Cl needs its IC50 filled in; supply it.
## Output 0.28

## Input Check the records and state IC50 for NC(=O)C(CO)NC(=O)C1CSC2(CN(C(=O)C(N)CO)C2)N1 (stereo not shown)
## Output 0.38

## Input Determine its reported IC50: CC(C)[C@H](N)C(=O)N1CCC2(CC1)NCCS2.Cl
## Output 0.89

## Input Quick one: give measured IC50 for CC(=O)N1CCCC2(C1)SCCN2C(=O)C(C)C (stereo not shown)
## Output 1.89
